Give T/C for every item shown.
Test system: CD2F1 mice, L1210 leukemia ip, survival T/C
method summary: NCI In Vivo Anticancer Drug Screen. Data for tumor model L1210 Leukemia (intraperitoneal) in CD2F1 (CDF1) mice
condition description: endpoint: mean survival time; dose: 200.0 mg/kg/injection; schedule: Q04DX002 (ip); vehicle: saline; higher = longer survival
Inconclusive results and toxic doses are left out.

## Input Please report the recorded T/C for COP(=O)(NC(C)=O)OC .
## Output 93 % of control

## Input And then COC(=O)C(C)S(=O)(=O)O (stereo unspecified) , what is it?
## Output 106 % of control

## Input Can you handle CCOP(=O)(OCC)c1ccccc1 next?
## Output 96 % of control

## Input And what about the molecule CCCCCCCCCCCC(C)(O)C#N (stereo unspecified) ?
## Output 92 % of control

## Input Entry Cc1ccc(S(=O)(=O)Cl)cc1 please
## Output 100 % of control

## Input Thanks! And COc1cc(N=C(N)N=C(N)N)c2ncccc2c1 ?
## Output 90 % of control

The reported measurements were obtained from PubChem BioAssay AID256.
